test system: influenza A/WSN/1933 (H1N1); assay: CPE assay at different multiplicities of infection (Example 94); format: cell-based, influenza A virus; conditions: MOI 0.1; read-out: EC50 H1N1 A/WSN/1933 (CPE in MDCK cells)
pEC50: −log10 of the molar value.
Recorded Endpoint: pEC50

CC(=O)N[C@H]1[C@H]([C@H](O)[C@H](O)CO)OC(C(=O)O)=C[C@@H]1N=C(N)N < 5.00

The record that follows has no pEC50 shown yet.
Bench note: what pEC50 did CCOC(=O)C1=C[C@@H](OC(CC)CC)[C@H](NC(C)=O)[C@@H](N)C1 show?
< 5.00
